Assay: Stability in mouse liver microsomes
Type: in vitro ADME
Settings: mouse, read-out: MLM Stability t1/2
Quantity Kind: log10 half-life (log10 of the value in min)
Scale: decimal log of half-life, half-life in min.

Query (compound): `CC(=O)n1ccc2c(Cl)c(Cl)ccc21` ; field requested: log10 half-life
0.04

Query (compound): `CC(=O)N1CCc2ccccc21` ; field requested: log10 half-life
0.90

Query (compound): `CC(=O)N1CC2(CC2)c2ccccc21` ; field requested: log10 half-life
0.58

Query (compound): `CC(=O)N1CCc2c1ccc(Cl)c2Cl` ; field requested: log10 half-life
0.08

Query (compound): O=C1CCC2Cc3ccccc3N12 (stereo not shown) ; field requested: log10 half-life
1.28

Query (compound): `CC(=O)N1CC2(CC2)c2c1cccc2C(F)(F)F` ; field requested: log10 half-life
0.30

Query (compound): `CC(=O)N1CC2(CC2)c2c(Cl)cccc21` ; field requested: log10 half-life
0.18

Query (compound): `CC(=O)N1CC2(CC2)c2cc(Cl)ccc21` ; field requested: log10 half-life
0.34

Query (compound): `CS(=O)(=O)N1CC2(CC2)c2c(Cl)cccc21` ; field requested: log10 half-life
0.85

Query (compound): `CC(=O)N1CCc2c1ccc(Cl)c2C(F)(F)F` ; field requested: log10 half-life
0.32
